List of pEC50 values.
SYSTEM_TESTED: T1, human neonatal Fc receptor (hFcRn) (human, UniProt P55899 24-290; P61769 21-119)
T1 construct: Biotinylated in the ELISA, Octet and yeast assays; also called human FcRn; huFcRn
MEASUREMENT_PROTOCOL: SPR competition pH 5.5
In simple prose, pEC50 is minus the logarithm base ten of a concentration in moles per litre.

See these solved cases before continuing.
variant Fc-fragment Fc-5-106-M4I (other) EPKSCDKTHTCPPCPAPELLGGPSVFLFPPKPKDTLMISRTPEVTCVVVDVSHEDPEVKFNWYVDGVEVHNAKTKPREEQYNSTYRVVSVLTVLHQDWLNGKEYKCKVSNKALPAPIEKTISKAKGQPREPQVYTLPPSRDELTKNQVSLTCLVKGFYPSDIAVEWESNGGCVFNIFNCGGGQPENNYKTTPPVLDSDGSFFLYSKLTVDKSRWQQGNVFSCSVMHEALHNHYTQKSLSLSPGK
8.59
variant Fc-fragment Fc-5-69 (other, soluble elsewhere) EPKSCDKTHTCPPCPAPELLGGPSVFLFPPKPKDTLMISRTPEVTCVVVDVSHEDPEVKFNWYVDGVEVHNAKTKPREEQYNSTYRVVSVLTVLHQDWLNGKEYKCKVSNKALPAPIEKTISKAKGQPREPQVYTLPPSRDELTKNQVSLTCLVKGFYPSDIAVEWESNGGCWPLQDYCGGGQPENNYKTTPPVLDSDGSFFLYSKLTVDKSRWQQGNVFSCSVMHEALHNHYTQKSLSLSPGK
7.70
variant Fc-fragment Fc-5-106-M4A (other) EPKSCDKTHTCPPCPAPELLGGPSVFLFPPKPKDTLMISRTPEVTCVVVDVSHEDPEVKFNWYVDGVEVHNAKTKPREEQYNSTYRVVSVLTVLHQDWLNGKEYKCKVSNKALPAPIEKTISKAKGQPREPQVYTLPPSRDELTKNQVSLTCLVKGFYPSDIAVEWESNGGCVFNAFNCGGGQPENNYKTTPPVLDSDGSFFLYSKLTVDKSRWQQGNVFSCSVMHEALHNHYTQKSLSLSPGK
7.57
variant Fc-fragment Fc-5-106-M4V (other) EPKSCDKTHTCPPCPAPELLGGPSVFLFPPKPKDTLMISRTPEVTCVVVDVSHEDPEVKFNWYVDGVEVHNAKTKPREEQYNSTYRVVSVLTVLHQDWLNGKEYKCKVSNKALPAPIEKTISKAKGQPREPQVYTLPPSRDELTKNQVSLTCLVKGFYPSDIAVEWESNGGCVFNVFNCGGGQPENNYKTTPPVLDSDGSFFLYSKLTVDKSRWQQGNVFSCSVMHEALHNHYTQKSLSLSPGK
8.21
variant Fc-fragment Fc-5-69-W1F (other, also called Fc-5-69-WIF) EPKSCDKTHTCPPCPAPELLGGPSVFLFPPKPKDTLMISRTPEVTCVVVDVSHEDPEVKFNWYVDGVEVHNAKTKPREEQYNSTYRVVSVLTVLHQDWLNGKEYKCKVSNKALPAPIEKTISKAKGQPREPQVYTLPPSRDELTKNQVSLTCLVKGFYPSDIAVEWESNGGCFPLQDYCGGGQPENNYKTTPPVLDSDGSFFLYSKLTVDKSRWQQGNVFSCSVMHEALHNHYTQKSLSLSPGK
7.24

binder variant Fc-fragment Fc-5-106-M4T (other) EPKSCDKTHTCPPCPAPELLGGPSVFLFPPKPKDTLMISRTPEVTCVVVDVSHEDPEVKFNWYVDGVEVHNAKTKPREEQYNSTYRVVSVLTVLHQDWLNGKEYKCKVSNKALPAPIEKTISKAKGQPREPQVYTLPPSRDELTKNQVSLTCLVKGFYPSDIAVEWESNGGCVFNTFNCGGGQPENNYKTTPPVLDSDGSFFLYSKLTVDKSRWQQGNVFSCSVMHEALHNHYTQKSLSLSPGK , pEC50 observed: 8.00

binder variant Fc-fragment Fc-5-69-W1Y (other, also called Fc-5-69-WIY) EPKSCDKTHTCPPCPAPELLGGPSVFLFPPKPKDTLMISRTPEVTCVVVDVSHEDPEVKFNWYVDGVEVHNAKTKPREEQYNSTYRVVSVLTVLHQDWLNGKEYKCKVSNKALPAPIEKTISKAKGQPREPQVYTLPPSRDELTKNQVSLTCLVKGFYPSDIAVEWESNGGCYPLQDYCGGGQPENNYKTTPPVLDSDGSFFLYSKLTVDKSRWQQGNVFSCSVMHEALHNHYTQKSLSLSPGK , pEC50 observed: 6.85
